# System: RXRa DBDmut IVT, anti-RXR (DBD mutation: RXRa K156A/R161A, NR concentration 90 nM)
# Method Description: PBM binding z-score (relative to random genomic background probes); higher = stronger binding; sequences stand for … in GC…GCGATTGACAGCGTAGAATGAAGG
Listed next: entries and their corresponding PBM binding z-score.

>  <Chain Sequence>
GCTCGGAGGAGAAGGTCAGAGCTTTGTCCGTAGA

>  <PBM binding z-score>
-0.281

$$$$
>  <Chain Sequence>
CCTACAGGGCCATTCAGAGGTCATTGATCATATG

>  <PBM binding z-score>
1.85

$$$$
>  <Chain Sequence>
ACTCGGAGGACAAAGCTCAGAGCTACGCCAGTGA

>  <PBM binding z-score>
0.394

$$$$
>  <Chain Sequence>
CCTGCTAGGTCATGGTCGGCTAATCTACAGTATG

>  <PBM binding z-score>
1.75

$$$$
>  <Chain Sequence>
CCTACTGGGCCACGAAAGGTCAGTGATTCAGTGA

>  <PBM binding z-score>
-0.37

$$$$
>  <Chain Sequence>
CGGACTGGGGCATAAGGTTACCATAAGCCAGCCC

>  <PBM binding z-score>
-0.836

$$$$
>  <Chain Sequence>
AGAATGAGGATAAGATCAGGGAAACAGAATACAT

>  <PBM binding z-score>
-0.458

$$$$
>  <Chain Sequence>
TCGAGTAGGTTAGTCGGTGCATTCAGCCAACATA

>  <PBM binding z-score>
0.415

$$$$
>  <Chain Sequence>
CGTCCAAGGTCAGGAGGTCAGTGAAAGCGACGTG

>  <PBM binding z-score>
2.75

$$$$
>  <Chain Sequence>
TTACCAAGGTGTGCTGAGGTCGTTGATCCAACTC

>  <PBM binding z-score>
0.555

$$$$
>  <Chain Sequence>
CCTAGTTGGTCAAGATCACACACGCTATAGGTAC

>  <PBM binding z-score>
0.493

$$$$
>  <Chain Sequence>
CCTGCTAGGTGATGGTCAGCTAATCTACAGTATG

>  <PBM binding z-score>
-0.024

$$$$
>  <Chain Sequence>
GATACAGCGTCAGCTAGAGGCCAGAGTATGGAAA

>  <PBM binding z-score>
-0.648

$$$$
>  <Chain Sequence>
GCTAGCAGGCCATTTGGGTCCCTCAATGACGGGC

>  <PBM binding z-score>
-0.721

$$$$
>  <Chain Sequence>
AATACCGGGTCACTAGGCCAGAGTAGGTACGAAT

>  <PBM binding z-score>
1.2

$$$$
>  <Chain Sequence>
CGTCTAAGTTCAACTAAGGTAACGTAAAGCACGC

>  <PBM binding z-score>
4.84

$$$$
>  <Chain Sequence>
TCGAGTATGTTAGTCGGGGCATTCAGCCAACATA

>  <PBM binding z-score>
0.723

$$$$
>  <Chain Sequence>
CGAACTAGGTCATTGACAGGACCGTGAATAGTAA

>  <PBM binding z-score>
2.37

$$$$
>  <Chain Sequence>
ATCTCTTGGTAACAAGTTCAGTGAAAGAGAGGAC

>  <PBM binding z-score>
1.09

$$$$
>  <Chain Sequence>
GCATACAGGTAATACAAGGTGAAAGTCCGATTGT

>  <PBM binding z-score>
0.25

$$$$
>  <Chain Sequence>
TCGAGTAGGTTAGTCGGGGCAATCAGCCAACATA

>  <PBM binding z-score>
0.255

$$$$
>  <Chain Sequence>
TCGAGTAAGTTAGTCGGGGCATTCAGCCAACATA

>  <PBM binding z-score>
0.38

$$$$
>  <Chain Sequence>
ACAGACAGGTGATGACGGTAACTCAGGCTATCAT

>  <PBM binding z-score>
-0.0365

$$$$
>  <Chain Sequence>
CCTAGCAGTCCAGGGTCACTCAAGCATTTCGCTT

>  <PBM binding z-score>
1.07

$$$$
>  <Chain Sequence>
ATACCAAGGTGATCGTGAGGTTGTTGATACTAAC

>  <PBM binding z-score>
0.169

$$$$
>  <Chain Sequence>
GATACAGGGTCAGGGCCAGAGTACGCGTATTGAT

>  <PBM binding z-score>
0.901

$$$$
